Measured values drawn from patent US9555038B2 for this set.

Tested on: HCV replicon 1B
Test: Cell-based HCV Replicon Assay B, replicon 1B
Condition Details: Hepatitis C virus

| Molecule | Tested System | IC50 / pM |
| --- | --- | --- |
| CCc1ncc(C2Oc3cc(-c4cnc([C@@H]5CCCN5C(=O)[C@@H](NC(=O)OC)C(C)C)[nH]4)cc(F)c3-c3cc4cc(-c5cnc([C@@H]6CCCN6C(=O)C(NC(=O)OC)C6CCOC(C)(C)C6)[nH]5)ccc4n32)s1 (single isomer, unassigned) [Compound 40] | HCV replicon 1B | 3 |
| COC(=O)N[C@H](C(=O)N1CCC[C@H]1c1ncc(-c2cc(F)c3c(c2)OC(c2cnc(C4CCCC4)s2)n2c-3cc3cc(-c4cnc([C@@H]5CCCN5C(=O)[C@@H](NC(=O)OC)C(C)C)[nH]4)ccc32)[nH]1)C(C)C (single isomer, unassigned) [Compound 25] | HCV replicon 1B | 1 |
| COC(=O)NC(C(=O)N1[C@@H]2C[C@@H]2C[C@H]1c1ncc(-c2ccc3c(c2)cc2n3C(c3cnc(C4CCC4)s3)Oc3cc(-c4cnc([C@@H]5CCCN5C(=O)[C@@H](NC(=O)OC)C(C)C)[nH]4)cc(C)c3-2)[nH]1)C1CCOC(C)(C)C1 (single isomer, unassigned) [Compound 223] | HCV replicon 1B | 8 |
| COC(=O)NC(C(=O)N1CCC[C@H]1c1ncc(-c2ccc3c(c2)cc2n3C(c3cnc(C4CC4)s3)Oc3cc(-c4cnc([C@@H]5CCCN5C(=O)[C@@H](NC(=O)OC)C(C)C)[nH]4)cc(C)c3-2)[nH]1)C1C[C@@H](C)O[C@@H](C)C1 (single isomer, unassigned) [Compound 212] | HCV replicon 1B | 8 |

---

The reader will find reported IC50 values listed item by item below.
Test system: HCV replicon 1B
Test: Cell-based HCV Replicon Assay B, replicon 1B
Condition Details: Hepatitis C virus

| Compound | IC50 (pM) |
| --- | --- |
| CCC(CC)c1ncc(C2Oc3cc(-c4cnc([C@@H]5CCCN5C(=O)[C@@H](NC(=O)OC)C(C)C)[nH]4)cc(F)c3-c3cc4cc(-c5cnc([C@@H]6CCCN6C(=O)[C@@H](NC(=O)OC)C(C)C)[nH]5)ccc4n32)s1 (mixture of isomers) | 2 |
| COCc1ncc(C2Oc3cc(-c4cnc([C@@H]5CCCN5C(=O)[C@@H](NC(=O)OC)C(C)C)[nH]4)cc(F)c3-c3cc4cc(-c5cnc([C@@H]6CCCN6C(=O)[C@@H](NC(=O)OC)C(C)C)[nH]5)ccc4n32)s1 (single isomer, unassigned) | 2 |
| CCCc1ncc(C2Oc3cc(-c4cnc([C@@H]5CCCN5C(=O)[C@@H](NC(=O)OC)C(C)C)[nH]4)cc(F)c3-c3cc4cc(-c5cnc([C@@H]6C[C@H]7C[C@H]7N6C(=O)[C@@H](NC(=O)OC)C(C)C)[nH]5)ccc4n32)s1 (single isomer, unassigned) | 3 |
| COC(=O)N[C@H](C(=O)N1CCC[C@H]1c1ncc(-c2cc(F)c3c(c2)OC(c2sc(C4CC4)nc2C2CC2)n2c-3cc3cc(-c4cnc([C@@H]5CCCN5C(=O)[C@@H](NC(=O)OC)C(C)C)[nH]4)ccc32)[nH]1)C(C)C (single isomer, unassigned) | 2.2 |

---

Test system: HCV replicon 1B
Test: Cell-based HCV Replicon Assay B, replicon 1B
Condition Details: Hepatitis C virus

| Compound | IC50 (pM) |
| --- | --- |
| COC(=O)NC(C(=O)N1CCC[C@H]1c1ncc(-c2ccc3c(c2)cc2n3C(c3cnc(CC(C)C)s3)Oc3cc(-c4cnc([C@@H]5CCCN5C(=O)[C@@H](NC(=O)OC)C(C)C)[nH]4)cc(F)c3-2)[nH]1)C1CCOC(C)(C)C1 (single isomer, unassigned) | 3.6 |
| COC(=O)NC(C(=O)N1[C@@H]2C[C@@H]2C[C@H]1c1ncc(-c2ccc3c(c2)cc2n3C(c3cnc(CC(C)C)s3)Oc3cc(-c4cnc([C@@H]5CCCN5C(=O)[C@@H](NC(=O)OC)C(C)C)[nH]4)cc(F)c3-2)[nH]1)C1C[C@@H](C)O[C@@H](C)C1 (single isomer, unassigned) | 3.6 |

---

IC50 overview
Tested on: HCV replicon 1B
Test: Cell-based HCV Replicon Assay B, replicon 1B
Condition Details: Hepatitis C virus

| Compound | Unit Of Measurement | IC50 |
| --- | --- | --- |
| COC(=O)N[C@H](C(=O)N1CCC[C@H]1c1ncc(-c2cc(F)c3c(c2)OC(c2cnc(C4CC4C)s2)n2c-3cc3cc(-c4cnc([C@@H]5CCCN5C(=O)[C@@H](NC(=O)OC)C(C)C)[nH]4)ccc32)[nH]1)C(C)C (mixture of isomers) | pM | 2.6 |
| COC(=O)N[C@H](C(=O)N1CCC[C@H]1c1ncc(-c2cc(F)c3c(c2)OC(c2ncc(-c4ccc(F)cc4)s2)n2c-3cc3cc(-c4cnc([C@@H]5CCCN5C(=O)[C@@H](NC(=O)OC)C(C)C)[nH]4)ccc32)[nH]1)C(C)C (single isomer, unassigned) | pM | 1 |
| COC(=O)NC(C(=O)N1[C@@H]2C[C@@H]2C[C@H]1c1ncc(-c2ccc3c(c2)cc2n3C(c3cnc(C4CC4)s3)Oc3cc(-c4cnc([C@@H]5CCCN5C(=O)[C@@H](NC(=O)OC)C(C)C)[nH]4)cc(C)c3-2)[nH]1)C1C[C@@H](C)O[C@@H](C)C1 (single isomer, unassigned) | pM | 4 |
| COC(=O)N[C@H](C(=O)N1CCC[C@H]1c1ncc(-c2cc(F)c3c(c2)OC(c2cnc(-c4ccc(F)cc4)s2)n2c-3cc3cc(-c4cnc([C@@H]5CCCN5C(=O)[C@@H](NC(=O)OC)C(C)C)[nH]4)ccc32)[nH]1)C(C)C (single isomer, unassigned) | pM | 1 |

---

Test system: HCV replicon 1AY93H
Test: Cell-based HCV Replicon Assay A, replicon 1AY93H
Condition Details: read-out: 1A Y93H IC50, replicon 1AY93H
Quick reference for IC50 among some compounds
Result Type: IC50 (nM)

| Compound | Result Type | Reported Result |
| --- | --- | --- |
| CCc1ncc(C2Oc3cc(-c4cnc([C@@H]5CCCN5C(=O)[C@@H](NC(=O)OC)C(C)C)[nH]4)cc(F)c3-c3cc4cc(-c5cnc([C@@H]6CCCN6C(=O)C(NC(=O)OC)C6C[C@@H](C)O[C@@H](C)C6)[nH]5)ccc4n32)s1 (single isomer, unassigned) [Compound 35] | IC50 | 0.161 |
| COC(=O)NC(C(=O)N1[C@@H]2C[C@@H]2C[C@H]1c1ncc(-c2ccc3c(c2)cc2n3C(c3cnc(C4CC4)s3)Oc3cc(-c4cnc([C@@H]5CCCN5C(=O)[C@@H](NC(=O)OC)C(C)C)[nH]4)cc(C)c3-2)[nH]1)C1C[C@@H](C)O[C@@H](C)C1 (single isomer, unassigned) [Compound 217] | IC50 | 0.0085 |
| COCc1ncc(C2Oc3cc(-c4cnc([C@@H]5CCCN5C(=O)[C@@H](NC(=O)OC)C(C)C)[nH]4)cc(F)c3-c3cc4cc(-c5cnc([C@@H]6CCCN6C(=O)[C@@H](NC(=O)OC)C(C)C)[nH]5)ccc4n32)s1 (single isomer, unassigned) [Compound 17] | IC50 | 1.01 |
| COC(=O)NC(C(=O)N1CCC[C@H]1c1ncc(-c2ccc3c(c2)cc2n3C(c3sc(C(C)C)nc3C)Oc3cc(-c4cnc([C@@H]5CCCN5C(=O)[C@@H](NC(=O)OC)C(C)C)[nH]4)cc(F)c3-2)[nH]1)C1CCOC(C)(C)C1 (single isomer, unassigned) | IC50 | 0.618 |
| COC(=O)N[C@H](C(=O)N1CCC[C@H]1c1ncc(-c2cc(F)c3c(c2)OC(c2cnc(OC)s2)n2c-3cc3cc(-c4cnc([C@@H]5CCCN5C(=O)[C@@H](NC(=O)OC)C(C)C)[nH]4)ccc32)[nH]1)C(C)C (single isomer, unassigned) [Compound 14] | IC50 | 0.0034 |
| COC(=O)N[C@H](C(=O)N1CCC[C@H]1c1ncc(-c2cc(F)c3c(c2)OC(c2cnc(C4CC4)s2)n2c-3c(F)c3cc(-c4cnc([C@@H]5CCCN5C(=O)[C@@H](NC(=O)OC)C(C)C)[nH]4)ccc32)[nH]1)C(C)C (single isomer, unassigned) [Compound 22] | IC50 | 0.86 |
| COC(=O)N[C@H](C(=O)N1CCC[C@H]1c1ncc(-c2cc(F)c3c(c2)OC(c2cnc(C4CCCC4)s2)n2c-3cc3cc(-c4cnc([C@@H]5CCCN5C(=O)[C@@H](NC(=O)OC)C(C)C)[nH]4)ccc32)[nH]1)C(C)C (single isomer, unassigned) [Compound 26] | IC50 | 0.126 |

---

Each record here notes measured IC50.
System: HCV replicon 1AY93H
Test: Cell-based HCV Replicon Assay A, replicon 1AY93H
Condition Details: read-out: 1A Y93H IC50, replicon 1AY93H
Result Type: IC50 (nM)

| Compound | Tested System | Unit Of Measurement | Reported Result |
| --- | --- | --- | --- |
| COC(=O)N[C@H](C(=O)N1CCC[C@H]1c1ncc(-c2cc(F)c3c(c2)OC(c2cnc(-c4ccc(F)cc4)s2)n2c-3cc3cc(-c4cnc([C@@H]5CCCN5C(=O)[C@@H](NC(=O)OC)C(C)C)[nH]4)ccc32)[nH]1)C(C)C (single isomer, unassigned) [Compound 31] | HCV replicon 1AY93H | nM | 0.0063 |
| COC(=O)NC(C(=O)N1CCC[C@H]1c1ncc(-c2ccc3c(c2)cc2n3C(c3cnc(C4(C)CCCC4)s3)Oc3cc(-c4cnc([C@@H]5CCCN5C(=O)[C@@H](NC(=O)OC)C(C)C)[nH]4)cc(F)c3-2)[nH]1)C1CCOC(C)(C)C1 (single isomer, unassigned) [Compound 447] | HCV replicon 1AY93H | nM | 0.259 |
| COC(=O)NC(C(=O)N1CCC[C@H]1c1ncc(-c2ccc3c(c2)cc2n3C(c3cnc(C4(C)CCCC4)s3)Oc3cc(-c4cnc([C@@H]5CCCN5C(=O)[C@@H](NC(=O)OC)C(C)C)[nH]4)cc(F)c3-2)[nH]1)C1CCOC(C)(C)C1 (single isomer, unassigned) [Compound 446] | HCV replicon 1AY93H | nM | 0.004 |
| COC(=O)N[C@H](C(=O)N1CCC[C@H]1c1ncc(-c2cc(F)c3c(c2)OC(c2cnc(C4CCOCC4)s2)n2c-3cc3cc(-c4cnc([C@@H]5CCCN5C(=O)[C@@H](NC(=O)OC)C(C)C)[nH]4)ccc32)[nH]1)C(C)C (single isomer, unassigned) [Compound 531] | HCV replicon 1AY93H | nM | 0.022 |
